Assay: In vitro toxicity assay (MTS assay), mouse IPMN cell line LGKC 4861
Type: cell-based
Settings: LGKC 4861 mouse IPMN cells, LGKC 4861 cells, MTS assay, vs vehicle control, read-out: reduction in cell viability
property.name: cytotoxicity

In: Report cytotoxicity for O=P(O)(O)C(O)(Cn1ccnc1)P(=O)(O)O please.
Out: ~55%

---

Test: In vitro toxicity assay (MTS assay), mouse IPMN cell line LGKC 4861
Assay type: cell-based
property.name: cytotoxicity

In: Look at this compound and give its reported cytotoxicity. CNC(=O)c1csc2c(C(F)(F)F)cc(N3CCC(OC(=O)NC(C)COC(F)(F)F)CC3)nc12 (stereo in doubt)
Out: ~80%
